The reported measurements were obtained from PubChem BioAssay AID1159580.

Some compounds, each annotated with its measured normalized growth.
- experiment.notes: chemical genetic growth profiling, strain panel (AID 1159580);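 note: tested at 20 µM; growth read once vehicle control cultures reached saturation at 30 °C; 1 = growth at the plate median or of vehicle wells; lower values mean less growth of the strain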
- recorded.conditions: S. cerevisiae deletion strains, growth OD, locus YMR129W, active compounds read low
Screen size: about 5,500 compounds; about 2,000 (36%) were called active. Inconclusive results (about 18%) are left out. The list shows a part of the results.

{"compound": "CCc1cc(C(N)=S)ccn1", "normalized growth": "0.996 (inactive)"}
{"compound": "CC(=O)[C@@]1(O)CCC2C3C[C@H](C)C4=CC(=O)C=CC4(C)[C@@]3(F)[C@@H](O)C[C@@]21C (stereo partly drawn)", "normalized growth": "0.964 (inactive)"}
{"compound": "O=C(Cc1cccs1)NC1C(=O)N2C(C(=O)[O-])=C(C[n+]3ccccc3)CSC12 (stereo not drawn)", "normalized growth": "1 (inactive)"}
{"compound": "CC(=O)OCC1=C(C(=O)O)N2C(=O)[C@@H](NC(=O)Cc3cccs3)[C@H]2SC1", "normalized growth": "1.02 (inactive)"}
{"compound": "COc1ccc2c(c1)CCC1C2CC[C@@]2(C)C1CC[C@@H]2O (stereo partly drawn)", "normalized growth": "0.961 (inactive)"}
{"compound": "CCCC(C)(COC(N)=O)COC(=O)NC(C)C (stereo not drawn)", "normalized growth": "0.985 (inactive)"}
{"compound": "NC(=O)NCCCC(N)C(=O)O (stereo not drawn)", "normalized growth": "0.991 (inactive)"}
{"compound": "CCCCCC(=O)Cc1cc(O)cc(O)c1C(=O)Oc1cc(CC(=O)CCCCC)c(C(=O)O)c(OC)c1", "normalized growth": "0.918 (active)"}
{"compound": "NC(=O)c1ncn([C@@H]2O[C@H](CO)[C@@H](O)[C@H]2O)n1", "normalized growth": "0.997 (inactive)"}
{"compound": "COc1ccc2c(c1)CCC1C2CCC2(C)C1C[C@@H](O)C2O (stereo partly drawn)", "normalized growth": "1.01 (inactive)"}
{"compound": "C=CC1C2=CCOC(=O)C2=COC1OC1OC(CO)C(O)C(O)C1O (stereo not drawn)", "normalized growth": "1.02 (inactive)"}
{"compound": "CCOC(=O)c1c(C)cc(OC)cc1O", "normalized growth": "0.977 (inactive)"}
{"compound": "O=c1c(O)c(-c2ccc(O)c(O)c2)oc2c(O)c(O)cc(O)c12", "normalized growth": "1.02 (inactive)"}
{"compound": "CC(=O)Oc1ccc2c(c1C(C)C)CCC1C(C)(C)CCC[C@]21C (stereo partly drawn)", "normalized growth": "1.03 (inactive)"}
{"compound": "C[C@]12CCC3c4ccc(OS(=O)(=O)O)cc4CCC3C1CC[C@H]2O (stereo partly drawn)", "normalized growth": "0.961 (inactive)"}
{"compound": "C[C@]12CCC3c4ccc(O)cc4CCC3C1C[C@@H](O)[C@@H]2O (stereo partly drawn)", "normalized growth": "1 (inactive)"}
{"compound": "CCC(=O)c1c(O)cc(O)cc1O", "normalized growth": "0.988 (inactive)"}
{"compound": "CC(C)c1c(O)ccc2c1CCC1[C@@](C)(CO)CCC[C@]21C (stereo partly drawn)", "normalized growth": "1.02 (inactive)"}
{"compound": "COC(=O)[C@]1(C)CCC[C@]2(C)c3ccc(C(C)C)cc3C(=O)CC12 (stereo partly drawn)", "normalized growth": "0.956 (inactive)"}
{"compound": "CCCCOc1cc(C(=O)NCCN(CC)CC)c2ccccc2n1", "normalized growth": "0.982 (inactive)"}
{"compound": "CC(C)c1c(O)ccc2c1CCC1[C@@](C)(C=O)CCC[C@]21C (stereo partly drawn)", "normalized growth": "0.972 (inactive)"}
{"compound": "CCCCCCC(C)OC(=O)COc1ccc(Cl)cc1Cl (stereo not drawn)", "normalized growth": "0.994 (inactive)"}
{"compound": "CCCCCCCCCCCC1=C(O)C(=O)C=C(O)C1=O", "normalized growth": "0.883 (active)"}

---

- experiment.notes: chemical genetic growth profiling, strain panel (AID 1159580);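 note: tested at 20 µM; growth read once vehicle control cultures reached saturation at 30 °C; 1 = growth at the plate median or of vehicle wells; lower values mean less growth of the strain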
- recorded.conditions: S. cerevisiae deletion strains, growth OD, locus YLR418C, strain cdc73, active compounds read low
Among all 5,500 compounds or so, about 2,000 (36%) were called active. About 18% were inconclusive and are not listed. The list shows a part of the results.
measurement.kind: normalized growth

{"compound": "CCCCOc1cc(C(=O)NCCN(CC)CC)c2ccccc2n1", "observed.result": "0.984 (inactive)"}
{"compound": "COc1cc(OC)c2ccc(=O)oc2c1", "observed.result": "1.01 (inactive)"}
{"compound": "COc1cc2occc2c2oc(=O)ccc12", "observed.result": "0.914 (inactive)"}
{"compound": "CN[C@@H]1C(O)[C@@H](O[C@@H]2[C@@H](O)[C@H](O[C@H]3OC(CN)=CC[C@H]3N)[C@@H](N)C[C@H]2N)OC[C@]1(C)O (stereo partly specified)", "observed.result": "1.02 (inactive)"}
{"compound": "COc1c(C(C)C)oc2cc3oc(=O)ccc3cc12", "observed.result": "0.703 (active)"}
{"compound": "CC(C)(C)NCC(O)c1cc(Cl)c(N)c(Cl)c1 (stereo unspecified)", "observed.result": "0.976 (inactive)"}
{"compound": "CCN1C[C@]2(C)CC[C@H](OC)[C@]34C2[C@H](O)[C@]2(OCO[C@@]25C[C@H](OC)[C@H]2C[C@]3(O)C5[C@H]2O)C14", "observed.result": "1.04 (inactive)"}
{"compound": "CCC1OC(=O)[C@H](C)C(=O)[C@H](C)[C@@H](OC2O[C@H](C)C[C@H](N(C)C)[C@H]2O)[C@](C)(OC)C2(CCCn3cnc(-c4cccnc4)c3)C[C@@H](C)C(=O)[C@H](C)[C@H]3N(C2)C(=O)O[C@]13C (stereo partly specified)", "observed.result": "0.979 (inactive)"}
{"compound": "COc1c2ccoc2cc2oc(=O)ccc12", "observed.result": "0.494 (active)"}
{"compound": "CC(C)C1COc2cc3oc(=O)ccc3cc2O1 (stereo unspecified)", "observed.result": "0.125 (active)"}
{"compound": "COc1ccc2ccc(=O)oc2c1", "observed.result": "1.02 (inactive)"}

---

- experiment.notes: chemical genetic growth profiling, strain panel (AID 1159580);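 note: tested at 20 µM; growth read once vehicle control cultures reached saturation at 30 °C; 1 = growth at the plate median or of vehicle wells; lower values mean less growth of the strain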
- recorded.conditions: S. cerevisiae deletion strains, growth OD, locus YPL078C, strain atp4
About 2,000 (36%) of roughly 5,500 compounds were called active. Not shown: some 18% with an inconclusive outcome. No stated cut-off is given here; in the data, active means normalized growth mostly below about 0.91 (no sharp cut-off); inconclusive means no clear call, values can overlap the other calls; inactive means mostly above about 0.92. The list shows a part of the results.
Outcomes: true (1) for active, false (0) for inactive

{"molecule": "CC(C)c1c(O)ccc2c1CCC1[C@@](C)(C=O)CCC[C@]21C (some centres not stated)", "assigned.class": "false (0)"}
{"molecule": "CCOC(=O)c1c(C)cc(O)cc1O", "assigned.class": "true (1)"}
{"molecule": "COC(=O)[C@@]1(C)CCC[C@]2(C)c3ccc(O)c(C(C)C)c3CCC12 (some centres not stated)", "assigned.class": "false (0)"}
{"molecule": "CC(C)c1c(O)ccc2c1CCC1[C@@](C)(CO)CCC[C@]21C (some centres not stated)", "assigned.class": "false (0)"}
{"molecule": "CCc1cc(C(N)=S)ccn1", "assigned.class": "false (0)"}
{"molecule": "CC(=O)Oc1ccc2c(c1C(C)C)CCC1C(C)(C)CCC[C@]21C (some centres not stated)", "assigned.class": "false (0)"}
{"molecule": "NS(=O)(=O)c1cc(C2(O)NC(=O)c3ccccc32)ccc1Cl (configuration not stated)", "assigned.class": "false (0)"}
{"molecule": "COC1=CC(=O)C(O)=C/C1=C\\C=C\\c1ccccc1", "assigned.class": "true (1)"}
{"molecule": "CCC(=O)c1c(O)cc(O)cc1O", "assigned.class": "false (0)"}
{"molecule": "Cc1cc(OC(=O)c2c(C)cc(O)cc2O)cc(O)c1C(=O)O", "assigned.class": "false (0)"}
{"molecule": "CCOC(=O)c1c(C)cc(OC)cc1O", "assigned.class": "false (0)"}
{"molecule": "COC(=O)[C@]1(C)CCC[C@]2(C)c3ccc(C(C)C)cc3C(=O)CC12 (some centres not stated)", "assigned.class": "false (0)"}

---

Some compounds, each annotated with its measured normalized growth.
- experiment.notes: chemical genetic growth profiling, strain panel (AID 1159580);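 note: tested at 20 µM; growth read once vehicle control cultures reached saturation at 30 °C; 1 = growth at the plate median or of vehicle wells; lower values mean less growth of the strain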
- recorded.conditions: S. cerevisiae deletion strains, growth OD, locus YOR119C, strain RIO1, active compounds read low
The whole screen tested about 5,500 compounds, of which about 2,000 (36%) were called active. Another 18% or so got no clear call; they are omitted. The list shows a part of the results.

{"compound": "COc1ccc(/C=C2/C(=O)Nc3ccccc32)cc1", "normalized growth": 0.899}
{"compound": "Oc1c(Br)cc(Br)cc1/C=N\\n1cnnc1", "normalized growth": 0.237}
{"compound": "O=C1Nc2ccccc2/C1=C\\c1cccc([N+](=O)[O-])c1", "normalized growth": 1.07}
{"compound": "OC1(C(F)(F)F)CC(c2ccc3ccccc3c2)=NN1 (stereo not drawn)", "normalized growth": 0.129}
{"compound": "O=C(NNc1ccc(F)cc1F)c1sccc1Cl", "normalized growth": 0.994}
{"compound": "FC(F)(F)c1ccc(N2CCc3ccccc3C2)c(NC(=S)Nc2cc(Cl)cc(Cl)c2)c1", "normalized growth": 0.98}
{"compound": "O=[N+]([O-])c1cc(Cl)cc([N+](=O)[O-])c1Nc1ccccc1", "normalized growth": 1.03}
{"compound": "O=S(=O)(CS(=O)(=O)Oc1ccc(Cl)c(Cl)c1)Oc1ccc(Cl)c(Cl)c1", "normalized growth": 1.05}
{"compound": "CCOC(=O)N/N=C\\c1cc(Cl)cc(Cl)c1O", "normalized growth": 0.729}
{"compound": "O/N=C(/c1ccc(Cl)cc1)c1cc2ccccc2o1", "normalized growth": 0.848}
{"compound": "Oc1c(Br)cc(Br)cc1C=Nc1ccc(Sc2ccccc2)nc1Sc1ccccc1", "normalized growth": 0.313}
{"compound": "Cc1cc(Cl)ccc1NNC(=O)c1sccc1Br", "normalized growth": 0.92}
{"compound": "Cc1c(C)c(C)c(C(O)c2ccccc2)c(C)c1C (stereo not drawn)", "normalized growth": 0.915}
{"compound": "Cc1cc(Cl)ccc1NNC(=O)c1sccc1Cl", "normalized growth": 0.91}
{"compound": "CCCCNC(=S)N/N=C\\c1cc(Cl)cc(Cl)c1O", "normalized growth": 0.343}
{"compound": "COc1ccccc1NC(=S)N/N=C\\c1ccccc1O", "normalized growth": 0.941}
{"compound": "OC(COc1ccc(F)cc1)(c1ccccc1)c1ccccc1", "normalized growth": 1.02}
{"compound": "CC(C)(C)C(=O)NC(=S)N/N=C\\c1cc(Cl)cc(Cl)c1O", "normalized growth": 0.547}
{"compound": "Oc1c(Br)cc(Br)cc1C=Nc1ccccn1", "normalized growth": 0.341}
{"compound": "O=C1Nc2ccccc2/C1=C\\c1c(Cl)cccc1Cl", "normalized growth": 1.02}
{"compound": "CCNC(=S)N/N=C\\c1cc(Cl)cc(Cl)c1O", "normalized growth": 0.78}
{"compound": "Cc1ccc(C)n1-c1ccc(/C=C2/C(=O)Nc3ccccc32)cc1", "normalized growth": 0.942}
{"compound": "O=C1C(Cl)=C(Oc2cc(Cl)c(Cl)cc2Cl)C(=O)c2ccccc21", "normalized growth": 0.118}
